Below, each entry is listed with its recorded IL6, Luminex (supernatant).
Molecular target: T1, T cell receptor (TCR) Vγ9 (TRGV9) (human, UniProt Q99603 21-122); further: unit not given here
T1 chain (looked up): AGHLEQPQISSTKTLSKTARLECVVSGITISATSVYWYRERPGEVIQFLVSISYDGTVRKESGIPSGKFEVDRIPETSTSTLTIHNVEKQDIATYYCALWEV
Experiment: cell-based or functional assay
MEASURE_NAME: IL6, Luminex (supernatant)

INSERT INTO measurements (binder, measure_name, measurement) VALUES
  ('VG9B33 (antibody, human IgG1, kappa, V domains shown) VH: EVQLVESGGGLVKPGGSLRLSCAASGFTFSSYNMNWVRQAPGKGLEWVSSISTSSSYIYYADSVKGRFTISRDNAKNSLYLQMNGLRAEDTAVYYCARDTSVTKYPDTFDIWGQGTMVTVSS VL: DIVMTQSPSSLSASVGDRVTITCRASQDINNYLAWFQQKPGKVPNLLIYGASTLQSGVPSRFTGSGSGTDFTLTISSLQPEDVATYYCQKYNSAPFTFGPGTKVDIKR', 'IL6, Luminex (supernatant)', 240),
  ('VG9B67 (antibody, human IgG1, kappa, V domains shown) VH: EVQLVESGGGLVKPGGSLRLSCAASGFTFSSYTMNWVRQAPGKGLEWVSSISSSSSYIDYAESVKGRFTISRDNAKNSLYLQMNSLRAEDTAVYYCARDGDILATIRGSFDYWGQGTTVTVSS VL: DIVMTQTPLSLPVTPGEPASISCRSSQSLLDSDAGNTYLDWYLQKPGQSPQLLIYTLSYRASGVPDRFSGSGSGTDFTLKISRVEAEDVAIYYCMQRIEFPITFGQGTKVEIKR', 'IL6, Luminex (supernatant)', 365),
  ('VG9B44 (antibody, human IgG1, kappa, V domains shown) VH: QVQLQQSGPGLVKPSQTLSLTCAISGDSVSSNSAAWNWIRQSPSRGLEWLGRTYYRSKWYNDYPISVKSRISINPDTSKNQFSLQLNSVTPEDTAVYYCARESGSYYTDGFDIWGQGTMVTVSS VL: DIQMTQSPSFLSASVGDRVTITCRASQGISSYLAWYQQKPGKAPKLLIYAASTLQSGVPSRFSGSGSGTEFTLTISSLQPEDFATYYCQEFNSYPYTFGQGTKLEIKR', 'IL6, Luminex (supernatant)', 587);

Attribution: patent US20220125947A1
